self-cleavage for assorted variants
B1: HDV Ribozyme (parent)
chain: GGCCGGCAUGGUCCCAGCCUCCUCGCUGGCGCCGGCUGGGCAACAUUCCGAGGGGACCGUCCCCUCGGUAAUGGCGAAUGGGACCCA

Variants of: B1
Assay: self-cleavage, relative activity (ratio to wild type); higher = more cleavage; co-transcriptional
Kindly provide the number alone.

Recorded results for 4 variants are shown here.
C41G C84G | 0.665
C14G G68A | 0.431
G1C G40A | 0.111
U60C G82C | 0.269

Would you kindly look at the next entry?
**Query** Given the variant C63G G76A , what is its reported self-cleavage?
**Result** 0.974
